Experiment: Human HepG2 cell viability assay in 384 well format
Type: toxicity, cell-based
Set-up: dose 125 nL, time 70.5 hour; concentration not given beside the values
Conditions: HepG2 cells, read-out: Inhibition
Recorded cytotoxicity at 70.5 h values for a group of compounds are listed next.

COMPOUND	cytotoxicity at 70.5 h [%]
CNc1nc(CNC(=O)Nc2cc(Cl)ccc2F)cs1	-2.3
COCc1nn(C)c2c1CN(C(=O)c1ccno1)CC2	-9.37
O=C(C1CCCO1)N1CCCC2(CCN(c3cccnc3)CC2)C1 (stereo unspecified)	-3.98
Cc1ccccc1CNC(C)c1ccc(OCC(=O)NC2CC2)cc1 (stereo unspecified)	13.8
Cc1csc(C(Cc2ccsc2)NC(=O)c2cc(=O)n(C)c(=O)n2C)n1 (stereo unspecified)	-4.94
COc1ccc(CCNC(=O)C(C)Nc2cccc(C)c2C)cc1 (stereo unspecified)	-4.88
Cc1nnc([C@]23COC[C@H]2CN(Cc2cnn(C)c2)C3)o1	-4.29
CCC(=O)N1CCN(C(=O)Nc2cccc(F)c2)[C@H]2CS(=O)(=O)C[C@H]21	-2.91
CN(C)C1COC2(CCN(Cc3ccncc3)CC2)C1 (stereo unspecified)	-7.75
Cc1cc(NCCNc2ccc(C#N)cn2)nc(C)n1	-6.84
CCOc1ccc(NC(C)=O)cc1S(=O)(=O)Nc1nccs1	22.7
Nc1ncncc1-c1noc([C@@H]2CCCN2CC2CC2)n1	9.61
CCCC(N)CNS(=O)(=O)Cc1cccc(C#N)c1 (stereo unspecified)	-3.64
O=C(CCc1cccs1)N1CCCC(n2ccnc2)C1 (stereo unspecified)	-5.36
CCN(CC(=O)Nc1cc(Cl)ccc1C)C(=O)c1cnccn1	0.456
COCc1ccccc1NC(=O)c1ccoc1	-15
Cc1cccc(CNCC2(O)CCCN(CC3CCCCC3)C2=O)n1 (stereo unspecified)	-5.28
CC(O)CN1CCN(C(=O)CN(C)c2ccc(Cl)cn2)CC1 (stereo unspecified)	-12.2
Cc1cccc2ncnc(N3CCOC(C)C3)c12 (stereo unspecified)	2.61
Nc1nccc(N2CCC(c3cc(Cc4ccccc4)n[nH]3)CC2)n1	31.5
Cc1cnccc1N1CCN(c2nccc(CCC(F)(F)F)n2)CC1	-9.06
Cc1cccc(-n2ncc3c2CCCC3NCc2cccc(O)c2)c1C (stereo unspecified)	-3.55
CCCc1nc(CN2CCOC(Cn3cccn3)C2)no1 (stereo unspecified)	-1.75
COc1cccc(CCNS(=O)(=O)c2ccc(NC(C)=O)cc2)c1	2.8
Cc1cc2c(cc1CN1CCCCC1CCn1ccnc1C)OCO2 (stereo unspecified)	-1.13
COc1cc(NC(=O)C2CC(=O)N(c3cccc(F)c3)C2)ncn1 (stereo unspecified)	-3.43
Cc1c(Cl)cc(C(=O)N(CCO)Cc2nccn2C)cc1Cl	-0.75
NC[C@H]1CC[C@H](c2c(C(N)=O)sc3ccccc32)CC1	-3.54
CC1(c2ccc(Br)cc2)CC(=O)N(CCC#N)C1=O (stereo unspecified)	32.5
CN(C)C(=O)N1CCC2(CCCN(c3ncccn3)C2)C1 (stereo unspecified)	5.18
Cn1cnc2c1CCN(Cc1csc(-c3ccccc3F)n1)C2	-3.29
CC(C)(C)N1CC(C(=O)NCc2cn3cccnc3n2)CC1=O (stereo unspecified)	-5.98
CN(C)S(=O)(=O)N1CC[C@]2(O)CCN(CCCc3cccnc3)C[C@@H]2C1	1.31
Cc1nc[nH]c1CN1CCC(C2CCN(CCc3ccccc3)C2)CC1 (stereo unspecified)	-1.67
COc1ccc(C2CCCN2S(=O)(=O)c2cc(F)ccc2F)cc1 (stereo unspecified)	-6.85
Cc1ccc(S(=O)(=O)Cc2noc([C@@H]3C[C@@H](O)CN3C)n2)cc1	-2.56
